TEST_TARGET: A isoform of the insulin receptor (Homo sapiens, UniProt P06213)
Sequence (P06213 28-746 isoform P06213-2 limits assumed): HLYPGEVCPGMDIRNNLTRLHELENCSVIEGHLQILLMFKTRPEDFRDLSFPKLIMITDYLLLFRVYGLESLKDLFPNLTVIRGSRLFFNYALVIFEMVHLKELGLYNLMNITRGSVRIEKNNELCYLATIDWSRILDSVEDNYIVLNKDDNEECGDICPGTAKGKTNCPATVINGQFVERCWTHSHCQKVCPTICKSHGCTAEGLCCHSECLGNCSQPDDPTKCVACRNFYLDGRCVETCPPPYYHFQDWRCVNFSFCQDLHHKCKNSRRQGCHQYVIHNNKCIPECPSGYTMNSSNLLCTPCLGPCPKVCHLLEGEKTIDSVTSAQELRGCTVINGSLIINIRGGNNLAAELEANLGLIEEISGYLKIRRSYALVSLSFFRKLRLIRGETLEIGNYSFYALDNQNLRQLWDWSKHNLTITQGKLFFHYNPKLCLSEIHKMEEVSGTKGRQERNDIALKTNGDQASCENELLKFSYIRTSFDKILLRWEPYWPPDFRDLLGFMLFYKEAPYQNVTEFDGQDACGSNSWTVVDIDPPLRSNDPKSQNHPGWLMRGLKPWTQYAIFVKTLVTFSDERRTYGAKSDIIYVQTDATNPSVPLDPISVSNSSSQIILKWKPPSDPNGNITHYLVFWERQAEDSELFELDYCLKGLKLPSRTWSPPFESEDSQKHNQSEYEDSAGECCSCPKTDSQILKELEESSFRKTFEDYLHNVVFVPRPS
Sequence (P06213 763-1382 partner limits assumed): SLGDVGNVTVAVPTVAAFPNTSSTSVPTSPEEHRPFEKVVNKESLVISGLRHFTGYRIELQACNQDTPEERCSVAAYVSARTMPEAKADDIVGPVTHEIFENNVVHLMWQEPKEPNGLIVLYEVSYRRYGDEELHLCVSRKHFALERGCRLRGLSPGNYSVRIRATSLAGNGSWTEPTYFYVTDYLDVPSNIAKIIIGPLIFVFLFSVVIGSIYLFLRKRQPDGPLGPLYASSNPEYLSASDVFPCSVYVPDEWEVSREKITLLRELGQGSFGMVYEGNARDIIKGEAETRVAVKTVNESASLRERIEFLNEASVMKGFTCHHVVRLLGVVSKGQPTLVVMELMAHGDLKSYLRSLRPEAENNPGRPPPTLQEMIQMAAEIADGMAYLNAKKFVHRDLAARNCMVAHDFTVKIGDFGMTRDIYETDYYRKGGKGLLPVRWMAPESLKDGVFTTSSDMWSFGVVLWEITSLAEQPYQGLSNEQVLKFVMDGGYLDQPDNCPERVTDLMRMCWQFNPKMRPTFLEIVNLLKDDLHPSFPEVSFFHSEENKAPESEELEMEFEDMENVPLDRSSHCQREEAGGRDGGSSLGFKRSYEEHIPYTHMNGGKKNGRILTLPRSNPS
TEST_NAME: Receptor-binding assay, insulin receptor A isoform
EXPERIMENTAL_CONDITIONS: two-site sequential model, read-out: equilibrium dissociation constant / binding constant
Bridge positions count the residues as written; N and C are the ends. Ends that are not written are not given here.
PARAMETER_MEASURED: pKd
Numbers only, as −log10 of the molar value.

FVNQHLCGSHLVEALYLVCGERGFFYTPETEEGPRRGIVEQCCHSICSLEQLENYCN (disulfide 7-43, 19-56, 42-47) [SCI-57PE]
10.10

Read the next record carefully.
For the sequence shown here, FVNQHLCGSHLVEALYLVCGERGFFYTDPTEEGPRRGIVEQCCHSICSLEQLENYCN (disulfide 7-43, 19-56, 42-47) [SCI-57DP] , give the reported pKd.
10.22
